Molecular target: human 5-HT2c receptors (Homo sapiens, UniProt P28335)
Sequence (P28335 33-458): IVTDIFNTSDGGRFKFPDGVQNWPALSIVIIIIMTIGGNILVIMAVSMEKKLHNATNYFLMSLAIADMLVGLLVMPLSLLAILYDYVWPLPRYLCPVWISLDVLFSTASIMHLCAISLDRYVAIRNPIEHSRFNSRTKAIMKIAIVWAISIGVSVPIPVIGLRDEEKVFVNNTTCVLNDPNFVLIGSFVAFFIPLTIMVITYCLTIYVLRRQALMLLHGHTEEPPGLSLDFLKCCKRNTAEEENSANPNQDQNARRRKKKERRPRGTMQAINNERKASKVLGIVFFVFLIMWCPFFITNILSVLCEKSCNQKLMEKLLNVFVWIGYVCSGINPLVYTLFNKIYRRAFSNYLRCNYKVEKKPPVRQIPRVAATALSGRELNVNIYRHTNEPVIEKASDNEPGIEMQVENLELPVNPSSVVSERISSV
Conditions: read-out: IC50, antagonist activity on serotonin (5-HT)-induced GTP level increase; 30 M serotonin
valueType: pIC50
On this scale, pIC50 is minus log10 of a concentration expressed in M (mol/L).

Query: Would you mind telling me what pIC50 value was observed for O=C(Nc1ccc(Oc2cccnc2Cl)nc1)c1c[nH]c2ccccc12 [Example 22] ?
Response: 6.23

----------
molecular target: human gene recombinant 5-HT2c receptor expressed in CHO-K1 cell (Homo sapiens); construct: purchased Euroscreen, Belgium; host or cells: CHO-K1; assay: Binding affinity to the serotonin 5-HT2c receptor ([3H]mesulergine); details: [3H]mesulergine 1 nM, 37° C. 30 minutes; Table 2; read-out: IC50
pIC50: −log10 of the molar value.
# label = 1.0 if pIC50 >= 8 else 0.0

Query: Test whether the molecule `O=C(Nc1ccc(-c2cccnc2)cc1)c1c[nH]c2ccccc12` records pIC50 of 8 or higher.
Response: 0.0

Query: Could you do the same for `O=C(Nc1cccnc1)c1c[nH]c2ccccc12` , please?
Response: 0.0

Query: What would you report for `O=C(Nc1ccc(Oc2cccnc2)nc1)c1c[nH]c2ccccc12` ?
Response: 1.0

Query: What do you get for `Cc1ncccc1Oc1ccc(NC(=O)c2cn(C)c3ccccc23)cn1` ?
Response: 0.0

Query: Param item: `Cc1ncccc1Oc1ccc(NC(=O)c2ccc3ccccc3c2)cn1`
Response: 0.0

Query: Param item: `O=C(Nc1ccc(Oc2cncnc2)nc1)c1c[nH]c2ccccc12`
Response: 0.0

Query: Another: `Cc1ncccc1Oc1ccc(NC(=O)c2c[nH]c3ccc(I)cc23)cn1`
Response: 1.0

Query: What about this molecule? `Cc1ncccc1Oc1ccc(NC(=O)c2nc3ccccc3[nH]2)cn1`
Response: 0.0

Query: And then `Cc1ncccc1Oc1ccc(NC(=O)c2c[nH]c3ccccc23)cn1` , what is it?
Response: 0.0

----------
Measured IC50 (UniProtKB P35462)
Sequence (P35462 whole entry): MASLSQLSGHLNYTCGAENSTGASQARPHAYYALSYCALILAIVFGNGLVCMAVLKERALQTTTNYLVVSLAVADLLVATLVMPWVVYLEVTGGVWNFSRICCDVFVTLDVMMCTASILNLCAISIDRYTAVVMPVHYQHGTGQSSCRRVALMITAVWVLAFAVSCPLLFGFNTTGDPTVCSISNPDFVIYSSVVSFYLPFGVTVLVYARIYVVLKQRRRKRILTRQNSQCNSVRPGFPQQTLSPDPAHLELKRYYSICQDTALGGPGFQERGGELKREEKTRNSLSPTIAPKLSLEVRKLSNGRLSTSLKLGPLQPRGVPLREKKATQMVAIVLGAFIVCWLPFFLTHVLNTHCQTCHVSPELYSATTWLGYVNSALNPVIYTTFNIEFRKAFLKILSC

Query: // IC50 lookup, key: `Cc1ncccc1Oc1ccc(NC(=O)c2c[nH]c3c(C)cccc23)cn1`
Response: > 10 µM

Query: Cool, now `COc1ccc2[nH]cc(C(=O)Nc3ccc(Oc4cccnc4C)nc3)c2c1`
Response: > 10 µM

Query: Continue with Cc1cc2c(cc1C(F)(F)F)N(C(=O)Nc1ccc(Oc3cccnc3C)nc1)CC2 [Comparative Example 1, SB-243213, reference compound]
Response: > 1 µM

Query: Try `O=C(Nc1ccc(OCc2ccccn2)nc1)c1c[nH]c2ccccc12` next.
Response: > 10 µM

Query: Likewise for `Cc1ccc2[nH]cc(C(=O)Nc3ccc(Oc4cccnc4C)nc3)c2c1` ?
Response: > 10 µM

Query: Check `O=C(Nc1ccc(Oc2cccnc2Cl)nc1)c1c[nH]c2ccccc12` too.
Response: > 10 µM

Query: Continue with `Cc1ccc2c(C(=O)Nc3ccc(Oc4cccnc4C)nc3)c[nH]c2c1`
Response: > 10 µM

All values here come from patent US8324246B2.
